- system.tested: Escherichia coli GUS (EcGUS) (Escherichia coli, UniProt P05804)
- Sequence (P05804 whole entry): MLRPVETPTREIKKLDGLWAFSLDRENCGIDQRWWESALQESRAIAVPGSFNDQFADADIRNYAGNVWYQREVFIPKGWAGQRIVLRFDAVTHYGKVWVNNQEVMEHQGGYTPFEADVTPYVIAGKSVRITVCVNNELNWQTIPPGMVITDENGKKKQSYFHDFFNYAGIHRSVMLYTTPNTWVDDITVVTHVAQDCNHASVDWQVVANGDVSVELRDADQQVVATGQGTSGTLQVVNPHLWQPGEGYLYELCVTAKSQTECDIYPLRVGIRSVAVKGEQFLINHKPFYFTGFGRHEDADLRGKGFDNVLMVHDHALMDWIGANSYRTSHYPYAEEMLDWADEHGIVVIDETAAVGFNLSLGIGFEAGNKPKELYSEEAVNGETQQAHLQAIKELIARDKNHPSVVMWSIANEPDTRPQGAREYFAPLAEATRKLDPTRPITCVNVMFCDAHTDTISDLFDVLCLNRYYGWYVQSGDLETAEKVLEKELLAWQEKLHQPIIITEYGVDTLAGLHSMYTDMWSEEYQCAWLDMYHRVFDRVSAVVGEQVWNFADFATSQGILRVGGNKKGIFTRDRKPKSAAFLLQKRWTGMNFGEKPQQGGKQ
measured.endpoint: pKi
// scale note: pKi = -log10(conc_M); give the bare number

stdin: Please report the measured pKi for `CCOC(=O)/C=C/c1ccc(O)c(O)c1`
stdout: 5.57

----------
- system.tested: Escherichia coli GUS (EcGUS) (Escherichia coli, UniProt P05804)
- test: EcGUS inhibition assay
- Type: biochemical
- condition.parameters: read-out: IC50 against EcGUS; pNPG 250 µM, PBS pH 7.4, 37 °C, 30 min
Please use condition met for IC50 under 20 µM and condition not met for everything else, ties included.

Here's what some known entries look like.
| compound | system.tested | classification |
| --- | --- | --- |
| C[C@@H]1O[C@@H](OC[C@H]2O[C@@H](OCCc3ccc(O)c(O)c3)[C@H](O)[C@@H](OC(=O)/C=C/c3ccc(O)c(O)c3)[C@@H]2O)[C@H](O)[C@H](O)[C@H]1O [isoforsythiaside] | Escherichia coli GUS (EcGUS) (Escherichia coli, UniProt P05804) | condition met |
| C[C@@H]1O[C@@H](OC[C@H]2O[C@@H](OCCc3ccc(O)c(O)c3)[C@H](OC(=O)/C=C/c3ccc(O)c(O)c3)[C@@H](O)[C@@H]2O)[C@H](O)[C@H](O)[C@H]1O [forsythoside H] | Escherichia coli GUS (EcGUS) (Escherichia coli, UniProt P05804) | condition not met |
| COc1ccc(CCO[C@@H]2O[C@H](CO[C@@H]3OC[C@H](O)[C@H](O)[C@H]3O)[C@@H](OC(=O)/C=C/c3ccc(O)c(OC)c3)[C@H](O[C@@H]3O[C@@H](C)[C@H](O)[C@@H](O)[C@H]3O)[C@H]2O)cc1O [angoroside C] | Escherichia coli GUS (EcGUS) (Escherichia coli, UniProt P05804) | condition not met |
| COc1ccc(CCO[C@@H]2O[C@H](CO)[C@@H](OC(=O)/C=C/c3ccc(O)c(OC)c3)[C@H](O[C@@H]3O[C@@H](C)[C@H](O)[C@@H](O)[C@H]3O)[C@H]2O)cc1O [martynoside] | Escherichia coli GUS (EcGUS) (Escherichia coli, UniProt P05804) | condition met |
| O=C(O)[C@@H](O)[C@H]1OC(=O)[C@H](O)[C@H]1O [DSL, D-glucaric acid-1,4-lactone, reference compound] | Escherichia coli GUS (EcGUS) (Escherichia coli, UniProt P05804) | condition not met |

Turning now to a further record.
stdin: A record lists `CCOC(=O)/C=C/c1ccc(O)c(O)c1` . Is its IC50 below 20 µM?
stdout: condition met
